meta.source: patent US12398154B2

Measured IC50 accompanies every entry in the list below.
- assay_target: KRas G12A (Homo sapiens, UniProt P01116, G12A);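 further: binding to KRas measured by TR-FRET displacement after one hour at room temperature, IC50 from a four-parameter fit of percent-of-control values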
- Sequence (P01116 1-169 isoform P01116-2 G12A): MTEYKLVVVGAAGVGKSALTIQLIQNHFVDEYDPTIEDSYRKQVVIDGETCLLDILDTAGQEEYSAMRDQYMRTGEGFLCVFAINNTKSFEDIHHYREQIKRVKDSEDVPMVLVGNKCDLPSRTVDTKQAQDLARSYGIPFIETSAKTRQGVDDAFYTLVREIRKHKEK
- assay_procedure: biochemical

Below, 3 molecules whose answers are already recorded.
molecule="Fc1c(-c2cccc3cccc(F)c23)ncc2c(N3CCCC4(CC(F)C4)C3)nc(OCC34CCCN3CCC4)nc12 (stereo not shown)" assay_target="KRas G12A (Homo sapiens, UniProt P01116, G12A)" measured_parameter=IC50 result="2300 nM"
molecule=Fc1c(-c2cccc3cccc(F)c23)ncc2c(N3CC=CCC3)nc(OCC34CCCN3CCC4)nc12 assay_target="KRas G12A (Homo sapiens, UniProt P01116, G12A)" measured_parameter=IC50 result="3180 nM"
molecule="CCc1c(F)ccc2cc(O)cc(-c3ncc4c(N5CCC[C@@](C)(O)C5)nc(C(=O)NC(C)CN(C)C)nc4c3F)c12 (stereo partly shown)" assay_target="KRas G12A (Homo sapiens, UniProt P01116, G12A)" measured_parameter=IC50 result="156 nM"

Q. Fill in: IC50 of "Fc1c(-c2cccc3cccc(Cl)c23)ncc2c(N3CC(n4ccnc4)C3)nc(OCC34CCCN3CCC4)nc12" is ___
A. 994 nM

* * *

- System: pERK in ASPC1 cells
- assay_procedure: Inhibition of KRas phosphorylation of ERK (Cisbio HTRF pERK assay)
- recorded_conditions: Homo sapiens, ASPC1, read-out: Inhibition (HTRF IC50) of KRas-mediated Phosphorylation of ERK, AsPC-1
Measured log10(IC50) accompanies every entry in the list below.
Each number you see is log10 of IC50, and the unit inside the log is nM.

compound="CCc1c(F)ccc2cc(O)cc(-c3ncc4c(N5CCCCC(O)C5)nc(OC[C@@]56CCCN5C[C@H](F)C6)nc4c3F)c12 (stereo partly drawn)" measured_parameter=log10(IC50) quantitative_readout=2.07
compound=CCc1c(F)ccc2cc(O)cc(-c3ncc4c(N5CCC[C@@](C)(O)C5)nc(OC[C@@]56CCCN5[C@@H](CO)CC6)nc4c3F)c12 measured_parameter=log10(IC50) quantitative_readout=1.73
compound=CCc1c(F)ccc2cc(O)cc(-c3ncc4c(N5C[C@@H]6C[C@H](C5)[C@H](O)C6)nc(OCC5(CN6CCCC6)CC5)nc4c3F)c12 measured_parameter=log10(IC50) quantitative_readout=2.06
compound="CCc1c(F)ccc2cc(O)cc(-c3ncc4c(N5CCCC6(CNS(=O)(=O)N6)C5)nc(OC[C@@]56CCCN5C[C@H](F)C6)nc4c3F)c12 (stereo partly drawn)" measured_parameter=log10(IC50) quantitative_readout=1.46

Q. Fill in: log10(IC50) of CCc1c(F)ccc2cc(O)cc(-c3ncc4c(N5CCCC6(CC(=O)N6)C5)nc(OCC5(CN(C)C)CC5)nc4c3F)c12 (stereo not drawn) is ___
A. 3.12

Q. Fill in: log10(IC50) of "CCc1c(F)ccc2cc(O)cc(-c3ncc4c(N5CCC[C@]6(C5)NC(=O)NC6=O)nc(OCC5(CN6CCCC6)CC5)nc4c3F)c12" is ___
A. 2.68

* * *

- Test system: pERK in PSN1 cells
- assay_procedure: Inhibition of KRas phosphorylation of ERK (Cisbio HTRF pERK assay)
- recorded_conditions: Homo sapiens, PSN1, 3 h, read-out: Inhibition (HTRF IC50) of KRas-mediated Phosphorylation of ERK, PSN1
measured_parameter: IC50 (nM)
Use nM as the unit, but write only the number.

compound=O=C1C[C@]2(CCCN(c3nc(OC[C@@]45CCCN4C[C@H](F)C5)nc4c(F)c(-c5cc(O)cc6ccc(F)c(Cl)c56)ncc34)C2)N1 measured_parameter=IC50 unit_abbreviation=nM quantitative_readout=1300

Q. Fill in: IC50 of CCc1c(F)ccc2cc(O)cc(-c3ncc4c(N5CCCC6(CC(=O)NC6=O)C5)nc(OC[C@@]56CCCN5C[C@H](F)C6)nc4c3F)c12 (stereo partly drawn) is ___
A. 877
